The values you see were collected from ChEMBL document CHEMBL5442663.

- test details: Kinetic solubility of compound by measuring concentration at pH 7.4 in saturated PBS buffer by UV LCMS/MS using calibration curves. The assay has been performed by Enamine biological services, Bienta Ltd.The protocol is publicly available: dx.doi.org/10.17504/protocols.io.j8nlk8y41l5r/v1
- Type: physicochemical
- setup conditions: PBS buffer
outcome measure: solubility kinetic (µM)

Examples with their reported solubility kinetic follow.
CC(C)[C@@H](Nc1ncnc2[nH]c(-c3ccc4cncn4c3)cc12)c1ccc2c(c1)S(=O)(=O)CCC2 :: 14
CC(C)[C@@H](Nc1ncnc2[nH]c(-c3cnn(CC(N)=O)c3)cc12)c1ccc2c(c1)S(=O)(=O)CCC2 :: 341
CC(C)[C@@H](Nc1ncnc2[nH]ccc12)c1ccc2c(c1)S(=O)(=O)CCC2 :: 385
CCNC(=O)c1cc2c(N[C@@H](c3ccc4c(c3)S(=O)(=O)NCC4)C(C)C)ncnc2[nH]1 :: 344
CC(C)[C@H](Nc1ncnc2[nH]c(-c3cnn(CC(N)=O)c3)cc12)c1ccc2c(c1)S(=O)(=O)CCC2 :: 338
CNC(=O)c1c[nH]c2ncnc(N[C@@H](c3ccc4c(c3)S(=O)(=O)CCC4)C(C)C)c12 :: 390
CC(C)[C@H](Nc1ncnc2[nH]c(-c3cnn(CC(N)=O)c3)cc12)c1ccc2c(n1)OCCO2 :: 377
CC(C)[C@H](Nc1ncnc2[nH]c(-c3cnn(C)c3C#N)cc12)c1ccc2c(n1)OCCO2 :: 53

(a) O=C(Nc1ccccc1)Nc1ccc(C(=O)NC2c3cccc(O)c3CC2C(=O)O)cc1 (centres undefined)
(b) CC(C)[C@@H](Nc1ncnc2[nH]c(-c3cnn(C)c3C#N)cc12)c1ccc2c(n1)OCCO2
Input: Hello, I am sorting some records. Could you say if a or b has the smaller solubility kinetic value? Write down the label attached to your selection.
Output: b
(b: 89 µM, a: 319 µM)

(a) C[C@H](C(=O)O)[C@@H](NC(=O)c1ncnc2[nH]ccc12)c1ccc(Br)cc1
(b) CC(C)[C@@H](Nc1ncnc2[nH]c(-c3cnn(CC(=O)N(C)C)c3)cc12)c1ccc2c(c1)OCCO2
Input: Lower value of solubility kinetic belongs to which: a or b ? The response must carry the label of the picked entry.
Output: b

(a) COCCNC(=O)c1c[nH]c2ncnc(N[C@@H](c3ccc4c(c3)S(=O)(=O)CCC4)C(C)C)c12
(b) CC(C)[C@@H](Nc1ncnc2[nH]c(-c3cncc(S(C)(=O)=O)c3)cc12)c1ccc2c(c1)S(=O)(=O)CCC2
(c) Cc1nn(C)cc1-c1cc2c(N[C@@H](c3ccc4c(c3)S(=O)(=O)CCC4)C(C)C)ncnc2[nH]1
Input: Rank the 3 compounds: largest solubility kinetic first, smallest last. Return the labels ranked in the requested order, please.
Output: a, c, b

(a) CNCc1cc(-c2cc3c(N[C@@H](c4ccc5c(c4)S(=O)(=O)CCC5)C(C)C)ncnc3[nH]2)co1
(b) CC(C)[C@@H](Nc1ncnc2[nH]c(-c3cnn(CC(N)=O)c3)cc12)c1ccc2c(c1)NC(=O)CO2
Input: Pick the one with the larger solubility kinetic: a vs b Label of pick, please.
Output: a
(a: 321 µM, b: 25 µM)
